- test system: NRAS Q61K (Homo sapiens, UniProt P01111+P62937, Q61K)
- Sequence (P01111 whole entry Q61K): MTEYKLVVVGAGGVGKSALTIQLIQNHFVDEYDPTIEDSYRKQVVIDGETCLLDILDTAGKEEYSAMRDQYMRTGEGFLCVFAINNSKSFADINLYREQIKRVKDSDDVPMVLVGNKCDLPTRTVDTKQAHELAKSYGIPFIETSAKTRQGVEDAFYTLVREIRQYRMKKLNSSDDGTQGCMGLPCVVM
- Sequence (P62937 whole entry): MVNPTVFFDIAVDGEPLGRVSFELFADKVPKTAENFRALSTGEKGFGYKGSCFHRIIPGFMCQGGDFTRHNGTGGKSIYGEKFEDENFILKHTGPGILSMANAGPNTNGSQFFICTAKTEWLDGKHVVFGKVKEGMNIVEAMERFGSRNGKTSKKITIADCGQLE
- procedure details: Disruption of BRAF RBD interaction with Ras (FRET / MOA assay, with Cyclophilin A)
- Type: biochemical
- assay setup: NRAS Q61K; read-out: NRAS Q61K FRET data IC50
- From the text: Disruption of B-Raf Ras-Binding Domain (BRAF^RBD) Interaction with K-Ras by Compounds of the Invention (Also Called a FRET Assay or an MOA Assay) Note—The following protocol describes a procedure for monitoring disruption of K-Ras G12C (GMP-PNP) binding to BRAF^RBD by a compound of the invention. This protocol may also be executed substituting other Ras proteins or nucleotides. […]
pIC50: −log10 of the molar value.
// reported pIC50 per item

# example entries with known answers
{"columns": ["compound", "pIC50"],
 "data": [
  ["CCn1c(-c2cccnc2[C@H](C)OC)c2c3cc(ccc31)-c1csc(n1)C[C@H](NC(=O)[C@H](C(C)C)N(C)C(=O)N1C[C@@H]3CN(C)C[C@@H]31)C(=O)N1CCC[C@H](N1)C(=O)OCC(C)(C)C2 (atropisomer, axis not shown)", "5.00 to 6.00"],
  ["C=CC(=O)N1CCCC2(CCN(C(=O)N(C)[C@H](C(=O)N[C@H]3Cc4nc(cs4)-c4ccc5c(c4)c(c(-c4cccnc4[C@H](C)OC)n5CC)CC(C)(C)COC(=O)C4CCCN(N4)C3=O)C(C)C)CC2)C1 (stereo partly shown)", "6.00 to 7.00"],
  ["CCn1c(-c2cccnc2[C@H](C)OC)c2c3cc(ccc31)-c1csc(n1)C[C@H](NC(=O)[C@H](C(C)C)N(C)C(=O)N1C[C@H](N)[C@@H](F)C1)C(=O)N1CCC[C@H](N1)C(=O)OCC(C)(C)C2 (atropisomer, axis not shown)", "7.00 to 8.00"],
  ["CCn1c(-c2cccnc2[C@H](C)OC)c2c3cc(ccc31)-c1csc(n1)C[C@H](NC(=O)[C@H](C(C)C)N(C)C(=O)N1CCC3(CN(C)C3)C1)C(=O)N1CCC[C@H](N1)C(=O)OCC(C)(C)C2 (atropisomer, axis not shown)", "7.00 to 8.00"],
  ["CCn1c(-c2cccnc2[C@H](C)OC)c2c3cc(ccc31)-c1csc(n1)C[C@H](NC(=O)[C@H](C(C)C)N(C)C(=O)N1CC([C@@H](C)CO)C1)C(=O)N1CCC[C@H](N1)C(=O)OCC(C)(C)C2 (single isomer, unassigned)", "7.00 to 8.00"],
  ["CCn1c(-c2cccnc2[C@H](C)OC)c2c3cc(ccc31)-c1csc(n1)C[C@H](NC(=O)[C@H](C1CCCC1)N(C)C(=O)N1CCN(C)CC1)C(=O)N1CCC[C@H](N1)C(=O)OCC(C)(C)C2", "6.00 to 7.00"],
  ["CCn1c(-c2cccnc2[C@H](C)OC)c2c3cc(ccc31)-c1csc(n1)C[C@H](NC(=O)[C@H](C(C)C)N(C)C(=O)N1CC3(CC(N(C)CCOC)C3)C1)C(=O)N1CCC[C@H](N1)C(=O)OCC(C)(C)C2 (atropisomer, axis not shown)", "7.00 to 8.00"],
  ["CCn1c(-c2cccnc2[C@H](C)OC)c2c3cc(ccc31)-c1csc(n1)C[C@H](NC(=O)[C@H](C(C)C)N(C)C(=O)N1CCOC[C@@H]1CN(C)C)C(=O)N1CCC[C@H](N1)C(=O)OCC(C)(C)C2", "5.00 to 6.00"]
]}

Qu. Field request: pIC50 | item: C=CC(=O)N1CC[C@H](C(=O)N(C)[C@H](C(=O)N[C@H]2Cc3cc(O)cc(c3)-c3ccc4c(c3)c(c(-c3c(CCOC)cccc3OC)n4CC)CC(C)(C)COC(=O)[C@@H]3CCCN(N3)C2=O)C(C)C)C1
Ans. 5.00 to 6.00

Qu. Field request: pIC50 | item: CCn1c(-c2cccnc2[C@H](C)OC)c2c3cc(cnc31)-c1csc(n1)C[C@H](NC(=O)[C@H](C(C)C)N(C)C(=O)N1CC(OC)C1)C(=O)N1CCC[C@H](N1)C(=O)OCC(C)(C)C2
Ans. 6.00 to 7.00

Qu. Field request: pIC50 | item: CCn1c(-c2cccnc2[C@H](C)OC)c2c3cc(ccc31)-c1csc(n1)C[C@H](NC(=O)[C@H](C(C)C)N(C)C(=O)N1CCC13CN(C)C3)C(=O)N1CCC[C@H](N1)C(=O)OCC(C)(C)C2
Ans. 6.00 to 7.00

Qu. Field request: pIC50 | item: CCn1c(-c2cccnc2[C@H](C)OC)c2c3cc(ccc31)-c1csc(n1)C[C@H](NC(=O)[C@@H]1CCCO1)C(=O)N1CCC[C@H](N1)C(=O)OCC(C)(C)C2
Ans. 6.00 to 7.00

Qu. Field request: pIC50 | item: CCn1c(-c2cc(N3CCN(C)CC3)cnc2[C@H](C)OC)c2c3cc(ccc31)-c1cc(O)cc(c1)C[C@H](NC(=O)[C@H](C(C)C)N(C)C(=O)[C@@H]1OCC[C@@H]1c1ccccc1)C(=O)N1CCC[C@H](N1)C(=O)OCC(C)(C)C2 (atropisomer, axis not shown)
Ans. 7.00 to 8.00
